Origin of measurements: PubChem BioAssay (NCI)

- Tested on: 786-0 renal
- experiment-description: NCI-60 one-dose screen, 48 h
- particulars: 10 µM
The panel holds about 83,000 compounds, 20% with a hit somewhere; the sample as a whole holds those more often. The source made the active and inactive calls. How the source made its calls: active means growth percent below 10; inactive means the rest.
Outcome codes: label 1 = active, label 0 = inactive

# compound, assayed-target, assigned-category
rows = [
    ("CN1CCN(c2ccc(C(=O)/C=C/c3cc(Br)ccc3F)cc2)CC1", "786-0 renal", "label 0"),
    ("Cc1ccc(F)cc1N/C=c1\\s/c(=C(\\C#N)C(=O)Nc2ccccc2)n(-c2ccccc2)c1=O", "786-0 renal", "label 0"),
    ("C=CCn1c(SCC(=O)Nc2ccc(C(=O)/C=C/c3ccccc3)cc2)nnc1-c1c[nH]c2ccccc12", "786-0 renal", "label 0"),
    ("CN1CCN(Cc2ccc(C(=O)Nc3cccc(Nc4ccc5cc(O)ccc5n4)c3)cc2C(F)(F)F)CC1", "786-0 renal", "label 1"),
    ("Brc1ccc(N/N=C/c2c[nH]c3ccccc23)nc1", "786-0 renal", "label 1"),
    ("O=C(CN1CCN(c2ncnc3c2cnn3-c2ccccc2)CC1)Nc1nncs1", "786-0 renal", "label 1"),
    ("CC1(C)CC[C@]2(C(=O)N3CCOCC3)CC[C@]3(C)C(=CC[C@@H]4[C@@]5(C)CC[C@H](NCO)C(C)(C)[C@@H]5CC[C@]43C)[C@H]2C1", "786-0 renal", "label 1"),
    ("COc1ccc(Nc2nc(N)n(Cc3cccc(Br)c3)n2)cc1", "786-0 renal", "label 1"),
    ("COc1ccc(-c2cc(-c3cc(C(=O)c4ccc(Br)cc4)n4ccc(C)cc34)nc(N)c2C#N)cc1", "786-0 renal", "label 0"),
    ("CN1CCN(c2ccc(Nc3nc(NCCCNC(=O)C4CCCCC4)c4sccc4n3)cc2)CC1", "786-0 renal", "label 1"),
    ("Cc1ccc(CSc2nc(-c3ccc(F)cc3)c(C#N)c(=O)[nH]2)cc1", "786-0 renal", "label 0"),
    ("O=C(Nc1cccc([N+](=O)[O-])c1)Nc1cccc([N+](=O)[O-])c1", "786-0 renal", "label 0"),
    ("COc1ccc2[nH]c(O)c(N=NC(=O)COc3ccc(NC(=O)Nc4ccc(Cl)c(Cl)c4)cc3)c2c1", "786-0 renal", "label 1"),
    ("O=C(c1ccc(O)cc1)C1[C@H](c2ccccc2Br)[C@@H](c2ccccc2)NC12C(=O)Nc1ccc(Br)cc12 (some centres undefined)", "786-0 renal", "label 0"),
    ("COc1ccc(-c2nc(S(=O)(=O)c3ccccc3)c(S(C)(=O)=O)o2)cc1", "786-0 renal", "label 1"),
    ("COc1cc(NC(=O)c2cc(-c3ccc(F)cc3F)ccc2O)cc(OC)c1OC", "786-0 renal", "label 0"),
    ("O=C(CNc1nc(-c2ccccc2)cs1)Nc1ccc(Cl)cc1[N+](=O)[O-]", "786-0 renal", "label 1"),
    ("Clc1ccc2c(N/N=C/c3c[nH]c4ccc(Br)cc34)ccnc2c1", "786-0 renal", "label 1"),
    ("CN(C)CCNC(=O)OCCCCOc1cc(O)c2c(=O)cc(-c3ccccc3)oc2c1", "786-0 renal", "label 1"),
]
